- Tested on: Hs-578T
- Test details: NCI tumour cell line growth inhibition, 48 h
The source made the active and inactive calls. No stated cut-off is given here; in the data, active = GI50 up to about 1.1 µM and inactive = higher.
Measurement label: GI50

Consider the reported GI50 for these molecules:
INSERT INTO measurements (line_notation, result) VALUES
  ('CC(C)(C)n1c(=O)n2n(c1=O)C1c3cccc4cccc(c34)C2C2c3cccc4cccc(c34)C1n1c(=O)n(C(C)(C)C)c(=O)n12', '64.3 µM (inactive)'),
  ('NNC(=O)CC(=O)Nc1ccc(Cl)cc1', '> 100 µM (inactive)'),
  ('CC(=O)Nc1nc(O)c2nc(C=O)cnc2n1', '> 100 µM (inactive)');

Qu. Bench note: what GI50 did `COc1cc2c(c(OC)c1OC)-c1ccc(=O)c(O)cc1[C@@H](NC(C)=O)CC2` show?
Ans. 21.3 µM (inactive)

----------
Record form. Attribute: GI50. Fill in for each entry.
- System: HOP-92
- Test details: NCI tumour cell line growth inhibition, 48 h
Active and inactive are the calls of the source. Rule as the data show it: active = GI50 up to about 1.1 µM and inactive = higher.

INSERT INTO measurements (compound, tested_on, measurement_label, result) VALUES
  ('O=C1CS/C(=N/N=C/c2cn(Cc3ccc(Cl)cc3Cl)c3ccccc23)N1', 'HOP-92', 'GI50', '28.2 µM (inactive)'),
  ('O=[N+]([O-])/C(Cl)=C(/C(Cl)=C(Cl)Cl)N1CCCCC1', 'HOP-92', 'GI50', '16.1 µM (inactive)'),
  ('COc1cc2nc3n(c(=O)c2cc1OC)CCCCC3', 'HOP-92', 'GI50', '> 100 µM (inactive)'),
  ('CCN(CC)CCOC(c1ccccc1)c1ccccc1.CCOC(=O)Nc1ccc(S(=O)(=O)NCCCl)cc1.CCOC(=O)Nc1ccc(S(=O)(=O)NCCCl)cc1.Nc1ccc(C(=O)O)c(O)c1', 'HOP-92', 'GI50', '> 100 µM (inactive)');

The following compounds each have a reported value; give each one's GI50.
1. N#CCCC1(CCC#N)CCCCCCCCC(CCC#N)(CCC#N)C(=O)C1=O
2. CN(CCO)c1nc(=O)c2c(n1C1OC(CO)C(O)C(O)C1O)CCCC2 (stereo not drawn)
3. OCCSCc1cc(Cl)cc(Cl)c1O

Ans.
1. > 100 µM (inactive)
2. > 100 µM (inactive)
3. 57.9 µM (inactive)

Qu. Bench note: what GI50 did OC1CC2CCC(C1)N2CCCN1c2ccccc2Sc2ccc(Cl)cc21 (stereo not drawn) show?
Ans. 2.5 µM (inactive)

----------
- Test system: MOLT-4
- Test details: NCI tumour cell line growth inhibition, 48 h
The source made the active and inactive calls. No stated cut-off is given here; in the data, active = GI50 up to about 1.1 µM and inactive = higher.
The reply should name one outcome from 1 = active, 0 = inactive

Would you please look over these solved cases?
INSERT INTO assay_data (molecule, assigned_class) VALUES
  ('N#CC(c1cc2c(cc1Br)OCO2)N1CCOCC1 (stereo not drawn)', 0),
  ('CN(C)CCNC(=O)c1cccc2cc3ccc4ccccc4c3nc12', 1),
  ('CCOC(=O)/C(C#N)=C1/SC(C(=O)N/N=C/c2ccc(OC)cc2)=C(N)N1c1ccccc1', 0),
  ('Cc1c(/C=N\NC(=S)N(C)CCN(C)C(=S)N/N=C\c2c(C)n(C)n(-c3ccccc3)c2=O)c(=O)n(-c2ccccc2)n1C', 0),
  ('COc1ccc(\N=C/C=C/C(=C/COC(C)=O)OC(C)=O)cc1', 0),
  ('Cc1oc2c(C)c3oc(=O)cc(C)c3cc2c1CNC(=O)[C@@H]1OCCOCCOCCOCCOCCOC1C(=O)O (stereo partly drawn)', 0);

Qu. Please share the test call associated with `N#Cc1sc2c(c1OC(=O)c1ccccc1)c(=O)n(-c1ccccc1)c(=S)n2-c1ccccc1` .
Ans. 0

Qu. Please share the test call associated with `COc1ccc(/C=N/N=C(N)N)c(C(=O)O)c1OC` .
Ans. 0

Qu. Please share the test call associated with `CCN(CC)CCOC(c1ccccc1)c1ccccc1.CCOC(=O)Nc1ccc(S(=O)(=O)NCCCl)cc1.CCOC(=O)Nc1ccc(S(=O)(=O)NCCCl)cc1.Nc1ccc(C(=O)O)c(O)c1` .
Ans. 0

----------
- System: Malme-3M
- Test details: NCI tumour cell line growth inhibition, 48 h
Calls of active or inactive are those of the source. No stated cut-off is given here; in the data, active = GI50 up to about 1.1 µM and inactive = higher.
Measurement label: GI50

INSERT INTO assay_data (line_notation, result) VALUES
  ('Cc1ccc(C)n2c1nc1cc3ccccc3cc12', '50.1 µM (inactive)'),
  ('COc1c(OC)c(OC)c(-c2cc(=O)c3c(OC)c(OC)c(OC)c(OC)c3o2)c(OC)c1OC', '47 µM (inactive)');

Qu. Bench note: what GI50 did `O=[N+]([O-])c1ccc(-c2noc(-c3ccccc3)c2C2=NCCN2)cc1` show?
Ans. > 100 µM (inactive)

----------
- Test system: TK-10
- Test details: NCI tumour cell line growth inhibition, 48 h
Activity calls are given as the source filed them. No stated cut-off is given here; in the data, active = GI50 up to about 1.1 µM and inactive = higher.
Record form. Attribute: GI50. Fill in for each entry.

The following molecules each have a reported value; give each one's GI50.
1. Cc1c(/C=N\NC(=S)N(C)CCN(C)C(=S)N/N=C\c2c(C)n(C)n(-c3ccccc3)c2=O)c(=O)n(-c2ccccc2)n1C
2. C/C(=N\[N+](C)(C)C)C(c1ccccc1)C1(c2ccccc2)C(c2ccccc2)=C1c1ccccc1 (stereo unspecified)
3. CCOC(=O)/C(C(=O)c1ccc([N+](=O)[O-])cc1)=C(\NS(=O)(=O)c1cc(C)c(Cl)cc1[S-])[n+]1ccc(N(C)C)cc1
4. O=[N+]([O-])/C=C\c1c[nH]c2ccc(OCc3ccccc3)cc12
5. COc1ccc(-c2csc(-n3c(-c4ccccc4)nc4c(Br)cc(Br)cc4c3=O)n2)cc1

Ans.
> 100 µM (inactive)
90.2 µM (inactive)
18.7 µM (inactive)
10.4 µM (inactive)
51.5 µM (inactive)

Qu. Bench note: what GI50 did `c1ccc(CSc2nc(N3CCCCC3)c3cn[nH]c3n2)cc1` show?
Ans. 30.1 µM (inactive)

----------
- Tested on: HOP-18
- Test details: NCI tumour cell line growth inhibition, 48 h
Calls of active or inactive are those of the source. No stated cut-off is given here; in the data, active = GI50 up to about 1.1 µM and inactive = higher.
The reply should name one outcome from true = active, false = inactive

Would you please look over these solved cases?
INSERT INTO results (compound, assigned_class) VALUES
  ('CCCCCCc1cc2c(C)c(C)c(=O)oc2cc1OCCCOc1cc2oc(=O)c(C)c(C)c2cc1CCCCCC', 'false'),
  ('COc1ccc(C(c2ccc(C(C)C)cc(OC)c2=O)c2ccc(C(C)C)cc(OC)c2=O)cc1', 'false'),
  ('Cc1c2c(cc3c1[nH]c1ccccc13)C=NCC2', 'false'),
  ('NC(=O)c1nnn(Cc2cc(Cl)c(C(=O)c3ccc(Cl)cc3)c(Cl)c2)c1N', 'false'),
  ('c1ccc([S+](c2ccccc2)c2ccc(Sc3ccc([S+](c4ccccc4)c4ccccc4)cc3)cc2)cc1', 'false'),
  ('COc1ccc(S(=O)(=O)N/N=C(\C)CN2C(=O)c3ccccc3C2=O)cc1OC', 'false');

Qu. Please share the test call associated with COc1cc([C@@H]2c3cc4c(cc3[C@@H](NC(=O)c3ccccc3)C3COC(=O)[C@@H]32)OCO4)cc(OC)c1O (stereo partly specified) .
Ans. false

Qu. Please share the test call associated with `OCCNCN(CNCCO)c1nc(N(CNCCO)CNCCO)nc(N(CNCCO)CNCCO)n1` .
Ans. true

Qu. Please share the test call associated with `CS(=O)(=O)ON1C(=O)c2ccc(N)cc2C1=O` .
Ans. false

Qu. Please share the test call associated with `CCN(CC)CCOC(c1ccccc1)c1ccccc1.CCOC(=O)Nc1ccc(S(=O)(=O)NCCCl)cc1.CCOC(=O)Nc1ccc(S(=O)(=O)NCCCl)cc1.Nc1ccc(C(=O)O)c(O)c1` .
Ans. false

Qu. Please share the test call associated with `CC(=O)NC1=C[C@@H]([C@H]2COC(C)(C)O2)OC1=O` .
Ans. false

----------
- System: LOX IMVI
- Test details: NCI tumour cell line growth inhibition, 48 h
The source made the active and inactive calls. Cut-off read from the data, not from the text of the source: active = GI50 up to about 1.1 µM and inactive = higher.
Measurement label: GI50

Consider the reported GI50 for these compounds:
INSERT INTO results (compound, tested_on, result) VALUES
  ('CC(O)c1nc(C#N)c(N)o1 (configuration not stated)', 'LOX IMVI', '> 100 µM (inactive)'),
  ('C=C(OC1C(C)=C2C(C1OC(=O)CCCCCCC)C(C)(OC(C)=O)CC(OC(=O)CCC)C1(O)C2OC(=O)C1(C)O)/C(C)=C/C (configuration not stated)', 'LOX IMVI', '0.0125 µM (active)'),
  ('CC(=O)O[C@@H]1O[Si](C(C)(C)C)(C(C)(C)C)[C@H](C)[C@H]1C', 'LOX IMVI', '25.8 µM (inactive)');

The following compounds each have a reported value; give each one's GI50.
1. CCOC(=O)C(C(=O)OCC)C(=O)c1ccccc1C(=O)c1ccccc1
2. C#CC(O)/C=C/C(O)CCCC(O)CC#CC(O)C#CC(O)CCCC(O)/C=C/CCCCCC(=O)CCCCCCCCCCCCCC(O)C(O)C#CC(=O)O (configuration not stated)
3. Cc1cc(-c2nc3ccccc3s2)ccc1N
4. COc1ccc(Br)c(/C=N\c2cccc3cc(OC)c(OC)cc23)c1
5. Cc1c2c(cc3c1[nH]c1ccccc13)C=NCC2
6. CC(NC(=O)CNP(=O)(c1ccccc1)c1ccccc1)C(=O)NC(Cc1ccccc1)C(=O)OCc1ccccc1 (configuration not stated)
7. CCCNc1c(Cl)cc(Cl)c2[nH]c3ccccc3c(=O)c12
8. COC(=O)C1CC2(CCC1=O)Cc1ccccc1C2=O (configuration not stated)

Ans.
1. > 100 µM (inactive)
2. 12.8 µM (inactive)
3. 31.6 µM (inactive)
4. 4.57 µM (inactive)
5. 8.09 µM (inactive)
6. 26.7 µM (inactive)
7. 33.7 µM (inactive)
8. > 100 µM (inactive)
